# Tested on: MOLM-14
# Test Protocol: Inhibition of cell viability in human MOLM-14 cells incubated for 48 hrs by Alamar blue assay
# Format: functional, cell-based
# Particulars: MOLM-14, 48 h
Below is a list of entries, each paired with its recorded pIC50 value.
Just the number, please; pIC50 means minus log10 of the concentration in mol/L.

{"Molecule Smiles": "CCc1nc(C(N)=O)c(Nc2ccc(N3CCC(N4CCN(C(=O)CNc5ccc(S(=O)(=O)NC(=O)c6ccc(N7CCN(CC8=C(c9ccc(Cl)cc9)CC(C)(C)CC8)CC7)cc6Oc6cnc7[nH]ccc7c6)cc5[N+](=O)[O-])CC4)CC3)c(OC)c2)nc1NC1CCOCC1", "pIC50": 5.97}

Please list pIC50 recorded for the compound CCc1nc(C(N)=O)c(Nc2ccc(N3CCC(N4CCN(C(=O)CCCCCCNc5ccc(S(=O)(=O)NC(=O)c6ccc(N7CCN(CC8=C(c9ccc(Cl)cc9)CC(C)(C)CC8)CC7)cc6Oc6cnc7[nH]ccc7c6)cc5[N+](=O)[O-])CC4)CC3)c(OC)c2)nc1NC1CCOCC1
5.48
